Hey, just so you know, these numbers are from patent US20250353873A1.

// values below are reported APOE RNA (% control) Cortex
Tested on: human APOE RNA
Experiment: Potency (dose response, ED50) in APOE C57BL/6NTac-Apoeem7250 knock-in mice, 4 weeks (Example 14)
Format: in vivo
Conditions: cortex, ICV dose 30 μg
Strand notation (5' to 3'): a small letter for the sugar, then the base; units joined by * are phosphorothioate-linked, units joined directly phosphodiester-linked; [ ] holds rarer units or linkages, { } end groups; capitals alone tell only the bases. [ms] = mesyl phosphoramidate linkage; e = 2'-O-(2-methoxyethyl) (MOE); k = constrained ethyl (cEt); [5mC] = 5-methylcytosine; d = 2'-deoxy (DNA)

{"columns": ["SUBSTANCE", "APOE RNA (% control) Cortex"],
 "data": [
  ["1778130: modified oligonucleotide complementary to human APOE RNA (eA*e[5mC]eTeTeG*kG*dT*dG[ms]dA[ms]dA*dT*d[5mC]*dT*dT*dT*dA[ms]kTkT*eA*eA; antisense) [compound 1778130]", 100],
  ["Aes^mCeoTeoTesGesGksTdsGdzAdzAdzTds^mCdsTdsTdsTdsAdzTksTksAesAe (eA*e[5mC]eTeT*eG*kG*dT*dG[ms]dA[ms]dA[ms]dT*d[5mC]*dT*dT*dT*dA[ms]kT*kT*eA*eA) [Compound No. 1757576]", 121],
  ["1693105: 6-10-4 MOE gapmer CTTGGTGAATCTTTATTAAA, linkages sosssszzzssssszssss (e[5mC]*eTeT*eG*eG*eT*dG[ms]dA[ms]dA[ms]dT*d[5mC]*dT*dT*dT*dA[ms]dT*eT*eA*eA*eA) [compound 1693105]", 85],
  ["1778131: modified oligonucleotide complementary to human APOE RNA (eA*e[5mC]eTeTeGkG*dT*dG[ms]dA[ms]dA*dT*d[5mC]*dT*dT*dT*dA[ms]kTkT*eA*eA; antisense) [compound 1778131]", 105],
  ["1778154: modified oligonucleotide complementary to human APOE RNA (e[5mC]*eT*eTeGeGeT*dG[ms]dA[ms]dA*dT*d[5mC]*dT*dT*dT*dA*dT*kTkAeA*eA; antisense) [compound 1778154]", 89],
  ["1746809 (k[5mC]*dT[ms]kT*dG[ms]kG*dT[ms]dG[ms]dA[ms]dA[ms]dT*d[5mC]*dT*dT*dT*dA[ms]dT*dT[ms]kA*kA*kA; antisense) [Compound 1746809]", 89],
  ["1785598: modified oligonucleotide complementary to human APOE RNA (k[5mC]*kT*kT*dG[ms]dG[ms]dT[ms]dG[ms]dA[ms]dA[ms]dT*d[5mC]*dT*dT*dT*dA*dT[ms]kT*kA*dA[ms]kA; antisense) [compound 1785598]", 84],
  ["1757575 (eA*e[5mC]eTeT*kG*kG*dT*dG[ms]dA[ms]dA[ms]dT*d[5mC]*dT*dT*dT*dA[ms]kT*eT*eA*eA; antisense) [Compound 1757575]", 82]
]}
